assay: folding stability dG unfold from trypsin proteolysis; higher = more stable
List of folding stability dG unfold values.
Please don't drop the unit; write it after the number.

// known answers, use as guide
SVNPATQVVTVTREVTYPVPPSQGPISEEEAREAVEAELAARGWTLREVRVEYEGDTVTVTAVAERPAAASA [r9_1134_JUSTAS]	1.04 kcal/mol
SAGSAAIKALLEKHPKPEVIEVTRLPGSGTLVIKVDDEDHVVPTPPGGFTETLTVDENGNVLSVEPHPASAG [r5_329_JUSTAS]	1.79 kcal/mol
KKVKIEIEVLSKTEEGYVMIAKAKYEEVEKVFEKPYKSKNPIETIKKIVKELFPGPEVTEVKVKYYPKEKKS [r1_399_TrMRF]	1.11 kcal/mol

Q: Item under review: SAGGEVELKIKIEIRVELNEDGELKVEIKIEIELRPKPEPELTEEERLAEELRKKYPGLSKEELEALLSAGG [r13_136_TrROS_Hall] . Reported folding stability dG unfold?
Result: 2.87 kcal/mol

Q: Item under review: SMILDVPGEQLDEALAEIRAAVAAGAPPVTIRMKLSPEDLKKAKAAFEALGMTVTPLPEPGVWEFTVELRSA [r9_600_JUSTAS] . Reported folding stability dG unfold?
Result: 3.08 kcal/mol

Q: Item under review: SAGGLLEELGLEIEEVEVEVEEVEVGQTVRIRVKVKGEDGEEFEIELEIRLPPPPVEVEEEVEEEEESAGGS [r8_216_TrROS_Hall] . Reported folding stability dG unfold?
Result: 1.91 kcal/mol

Q: Item under review: SAGGKPKEITLVVKVGETVEFPEGAEVTYDKETGTVTIKLPDGRTIRVEVTYNPDTDYLVVKITVEPSAGGS [r16_122_TrROS_Hall] . Reported folding stability dG unfold?
Result: 2.07 kcal/mol

Q: Item under review: SAGGSPISLEVSTSTLPDGTLRVTTTATSPDSSRSYTVTLDFPPSQPEEIPARAAAEAAAIAADPAVASAGG [r13_968_JUSTAS] . Reported folding stability dG unfold?
Result: -0.552 kcal/mol

Q: Item under review: SATTTLNLSSVEELKELVEKLIAEGNPEATLTVTLYPPSGESSTKSFSSVEEVIEELKKGPASVTITVTSSA [r9_589_JUSTAS] . Reported folding stability dG unfold?
Result: 2.18 kcal/mol

Q: Item under review: SAGSLELPPGVSEVVYDPSSGVYSVRYPDGTLVQVDVLYEPDPFVDELHPVAFVSVYSPTSLLATAPLNSAG [r5_109_TrMRF] . Reported folding stability dG unfold?
Result: 0.821 kcal/mol

----------
assay: folding stability dG unfold (combined trypsin and chymotrypsin); higher = more stable
List of folding stability dG unfold values.
# output: bare number, implied unit kcal/mol

// known answers, use as guide
SAGGSAGGSAGGGMMKTVLISLEGVDPSGGPSRRVEIELTLSPEEIPKVIEELAKAGRVLSAGGSAGGSAGG [r7_618_JUSTAS]	0.232
SAGGSAKTISIIIPFKGLTPEQAIEIAKELEKLLGTKAKIESIPGKGYILVTLELPNKTSYIIIPGSAGGSA [r15_168_TrMRF]	2
SAGNYYRVEVENPSEGKKVTIHIFPNGMINVEHDGGEHWIMIPPDNPDQIEEIASELAPNGYEVDIEPWSAG [r5_791_TrROS]	0.774

Proceeding to the next sequence to report its folding stability dG unfold.
Q: Item under review: SAGKIEILDEKPYKDSITVVAKLPGTDEIIVLTYNPKTKTVEIKIFPPKGVKTIPVKAKDIEKALKEIASAG [r5_769_TrMRF] . Reported folding stability dG unfold?
Result: 1.7
